system: Saos-2 (Osteosarcoma); assay: combination Emax (second highest fraction inhibited in the dose matrix, 72 h); higher = more inhibition; extreme values may be limits of the assay
For each of the compounds below, state its combination Emax.
Answers are plain numbers.

COMPOUND	combination Emax
C=CCn1c(=O)c2cnc(Nc3ccc(N4CCN(C)CC4)cc3)nc2n1-c1cccc(C(C)(C)O)n1 [AZD1775] + C1CN(CCC1(C(=O)N[C@@H](CCO)C2=CC=C(C=C2)Cl)N)C3=NC=NC4=C3C=CN4 [Capivasertib] (first compound max 3 µM, partner max 3 µM)	0.757

Quick request: combination Emax for each listed item, please.
1. Cn1cnc2c(F)c(Nc3ccc(Br)cc3Cl)c(C(=O)NOCCO)cc21 [Selumetinib] + C[C@@H]1COCCN1C2=NC(=NC(=C2)C3(CC3)[S@](=N)(=O)C)C4=C5C=CNC5=NC=C4 [AZD6738] (first compound max 10 µM, 7x7, partner max 10 µM)
2. CN(C)CCCOc1ccc(-c2ccc3ncc4c(c3c2)n(C2CCOCC2)c(=O)n4C)cn1 [AZD0156] + C[C@@H]1COCCN1C2=NC(=NC(=C2)C3(CC3)[S@](=N)(=O)C)C4=C5C=CNC5=NC=C4 [AZD6738] (first compound max 1 µM, 7x7, partner max 10 µM)
3. NC1(C(=O)N[C@@H](CCO)c2ccc(Cl)cc2)CCN(c2ncnc3[nH]ccc23)CC1 [Capivasertib] + CCN(CCO)CCCOc1ccc2c(Nc3cc(CC(=O)Nc4cccc(F)c4)[nH]n3)ncnc2c1 [AZD2811] (first compound max 10 µM, 7x7, partner max 1 µM)

Solution:
1. 0.456
2. 0.394
3. 0.586

---

For each of the molecules below, state its combination Emax.
system: TC-YIK (Other Solid Carcinomas); experiment: combination Emax (second highest fraction inhibited in the dose matrix, 72 h); higher = more inhibition; extreme values may be limits of the assay
Give bare numbers.

MOLECULE	ASSAY_TARGET	combination Emax
Cn1cnc2c(F)c(Nc3ccc(Br)cc3Cl)c(C(=O)NOCCO)cc21 [Selumetinib] + CCN(CCO)CCCOc1ccc2c(Nc3cc(CC(=O)Nc4cccc(F)c4)[nH]n3)ncnc2c1 [AZD2811] (first compound max 10 µM, 7x7, partner max 1 µM)	TC-YIK (Other Solid Carcinomas)	0.874

Exercise: combination Emax for O=C(c1cc(Cc2n[nH]c(=O)c3ccccc23)ccc1F)N1CCN(C(=O)C2CC2)CC1 [Olaparib] + Cc1c2c(nn1C)CSCc1cc(n(C)n1)CSc1cc(c3ccccc3c1)OCCCc1c(C(=O)O)n(C)c3c-2c(Cl)ccc13 [AZD5991] (first compound max 10 µM, 7x7, partner max 1 µM) ?
Solution: 0.449

---

system: D-283MED (Other Solid Carcinomas); assay: combination Emax (second highest fraction inhibited in the dose matrix, 72 h); higher = more inhibition; extreme values may be limits of the assay
combination Emax of 0.9 or higher: MET. Under 0.9: NOT MET.

COMPOUND	CAT
COc1nnc2ccc(N3CCC(c4ccc(OCCN5CCN(C)C(=O)[C@H]5C)cc4)CC3)nn12 [AZD5153] + CC1(C)CCC(CN2CCN(c3ccc(C(=O)NS(=O)(=O)c4ccc(NCC5CCOCC5)c([N+](=O)[O-])c4)c(Oc4cnc5[nH]ccc5c4)c3)CC2)=C(c2ccc(Cl)cc2)C1 [Venetoclax] (first compound max 1 µM, 7x7, partner max 1 µM)	NOT MET
C[C@@H](c1ccc2nccn2c1)n1nnc2ncc(-c3cnn(C)c3)nc21 [Savolitinib] + Cc1c2c(nn1C)CSCc1cc(n(C)n1)CSc1cc(c3ccccc3c1)OCCCc1c(C(=O)O)n(C)c3c-2c(Cl)ccc13 [AZD5991] (first compound max 1 µM, 7x7, partner max 1 µM)	NOT MET
Cn1cnc2c(F)c(Nc3ccc(Br)cc3Cl)c(C(=O)NOCCO)cc21 [Selumetinib] + CCN(CCO)CCCOc1ccc2c(Nc3cc(CC(=O)Nc4cccc(F)c4)[nH]n3)ncnc2c1 [AZD2811] (first compound max 10 µM, 7x7, partner max 1 µM)	NOT MET
Cc1c2c(nn1C)CSCc1cc(n(C)n1)CSc1cc(c3ccccc3c1)OCCCc1c(C(=O)O)n(C)c3c-2c(Cl)ccc13 [AZD5991] + CN(C)CCCOc1ccc(-c2ccc3ncc4c(c3c2)n(C2CCOCC2)c(=O)n4C)cn1 [AZD0156] (first compound max 1 µM, 7x7, partner max 1 µM)	NOT MET
CC1(C)CCC(CN2CCN(c3ccc(C(=O)NS(=O)(=O)c4ccc(NCC5CCOCC5)c([N+](=O)[O-])c4)c(Oc4cnc5[nH]ccc5c4)c3)CC2)=C(c2ccc(Cl)cc2)C1 [Venetoclax] + CS(=O)(=O)CCNCc1ccc(-c2ccc3ncnc(Nc4ccc(OCc5cccc(F)c5)c(Cl)c4)c3c2)o1 [Lapatinib] (first compound max 1 µM, 7x7, partner max 10 µM)	MET

Exercise: Has Cc1c2c(nn1C)CSCc1cc(n(C)n1)CSc1cc(c3ccccc3c1)OCCCc1c(C(=O)O)n(C)c3c-2c(Cl)ccc13 [AZD5991] + Nc1ccn([C@@H]2O[C@H](CO)[C@@H](O)C2(F)F)c(=O)n1 [Gemcitabine] (first compound max 1 µM, 7x7, partner max 0.3 µM) a recorded combination Emax greater than or equal to 0.9?
Solution: MET

---

test system: EKVX (Non-Small Cell Lung Carcinoma); experiment: Bliss excess, mean over the matrix (fraction); higher = more synergy;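 note: after 72 h of two-drug dosing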
MEASURED_PARAMETER: Bliss excess
One number for each entry.

COMPOUND	Bliss excess
CC1(C)CCC(CN2CCN(c3ccc(C(=O)NS(=O)(=O)c4ccc(NCC5CCOCC5)c([N+](=O)[O-])c4)c(Oc4cnc5[nH]ccc5c4)c3)CC2)=C(c2ccc(Cl)cc2)C1 [Venetoclax] + COc1cc(Nc2ncc3c(n2)-c2ccc(Cl)cc2C(c2c(F)cccc2OC)=NC3)ccc1C(=O)O [Alisertib] (first compound max 1 µM, 7x7, partner max 10 µM)	-0.0457
CC1(C)CCC(CN2CCN(c3ccc(C(=O)NS(=O)(=O)c4ccc(NCC5CCOCC5)c([N+](=O)[O-])c4)c(Oc4cnc5[nH]ccc5c4)c3)CC2)=C(c2ccc(Cl)cc2)C1 [Venetoclax] + Cc1cc2ncnn2cc1Nc1ncc2c(n1)n(C1CCOCC1)c(=O)n2C [AZD7648] (first compound max 1 µM, 7x7, partner max 10 µM)	-0.0788

Exercise: Bliss excess for CC1(C)CCC(CN2CCN(c3ccc(C(=O)NS(=O)(=O)c4ccc(NCC5CCOCC5)c([N+](=O)[O-])c4)c(Oc4cnc5[nH]ccc5c4)c3)CC2)=C(c2ccc(Cl)cc2)C1 [Venetoclax] + C[C@@H]1COCCN1C2=NC(=NC(=C2)C3(CC3)[S@](=N)(=O)C)C4=C5C=CNC5=NC=C4 [AZD6738] (first compound max 1 µM, 7x7, partner max 10 µM) ?
Solution: -0.054

---

test system: CS1 (Chondrosarcoma); test: combination Emax (second highest fraction inhibited in the dose matrix, 72 h); higher = more inhibition; extreme values may be limits of the assay
combination Emax of 0.6 or higher: MET. Under 0.6: NOT MET.

COMPOUND	CAT
N#Cc1cnc(Nc2cc(NC[C@H]3CNCCO3)c(C(F)(F)F)cn2)cn1 [SRA737] + Nc1ccn([C@@H]2O[C@H](CO)[C@@H](O)C2(F)F)c(=O)n1 [Gemcitabine] (first compound max 10 µM, 7x7, partner max 0.3 µM)	MET
Cc1c2c(nn1C)CSCc1cc(n(C)n1)CSc1cc(c3ccccc3c1)OCCCc1c(C(=O)O)n(C)c3c-2c(Cl)ccc13 [AZD5991] + C1CN(CCC1(C(=O)N[C@@H](CCO)C2=CC=C(C=C2)Cl)N)C3=NC=NC4=C3C=CN4 [Capivasertib] (first compound max 1 µM, 7x7, partner max 3 µM)	NOT MET
CN(CCO)CC[C@H](CSc1ccccc1)Nc1ccc(S(=O)(=O)NC(=O)c2ccc(N3CCC([C@@H](O)c4ccccc4-c4ccc(Cl)cc4)CC3)cc2)cc1S(=O)(=O)C(F)(F)F [AZD4320] + Cn1cnc2c(F)c(Nc3ccc(Br)cc3Cl)c(C(=O)NOCCO)cc21 [Selumetinib] (first compound max 1 µM, 7x7, partner max 3 µM)	MET
CC1(C)CCC(CN2CCN(c3ccc(C(=O)NS(=O)(=O)c4ccc(NCC5CCOCC5)c([N+](=O)[O-])c4)c(Oc4cnc5[nH]ccc5c4)c3)CC2)=C(c2ccc(Cl)cc2)C1 [Venetoclax] + Cn1cnc2c(F)c(Nc3ccc(Br)cc3Cl)c(C(=O)NOCCO)cc21 [Selumetinib] (first compound max 1 µM, 7x7, partner max 3 µM)	NOT MET
CN(CCO)CC[C@H](CSc1ccccc1)Nc1ccc(S(=O)(=O)NC(=O)c2ccc(N3CCC([C@@H](O)c4ccccc4-c4ccc(Cl)cc4)CC3)cc2)cc1S(=O)(=O)C(F)(F)F [AZD4320] + C=CCn1c(=O)c2cnc(Nc3ccc(N4CCN(C)CC4)cc3)nc2n1-c1cccc(C(C)(C)O)n1 [AZD1775] (first compound max 1 µM, partner max 1 µM)	MET

Exercise: Has CN(CCO)CC[C@H](CSc1ccccc1)Nc1ccc(S(=O)(=O)NC(=O)c2ccc(N3CCC([C@@H](O)c4ccccc4-c4ccc(Cl)cc4)CC3)cc2)cc1S(=O)(=O)C(F)(F)F [AZD4320] + Cc1cc2ncnn2cc1Nc1ncc2c(n1)n(C1CCOCC1)c(=O)n2C [AZD7648] (first compound max 1 µM, 7x7, partner max 10 µM) a recorded combination Emax greater than or equal to 0.6?
Solution: NOT MET

Ref: the supplement of paper PMC11061612
